- Test method notes: Inhibition of VEGFR2 in HUVEC assessed as reduction of VGF-stimulated cell proliferation after 5 days
Observable: IC50 (nM)
Give a bare numeral; the unit nM is implied.

Exercise: Given the entry `CN(c1ccc(F)c(NC(=O)c2cccc(OC(C)(C)C#N)c2Cl)c1)c1ccc2nc(NC(=O)C3CC3)sc2n1` , report its measured IC50.
Solution: 1.2
